Values were extracted from the supplement of paper PMC13380429.

Tested on: U2OS
Test: cell viability relative to DMSO; higher = less toxic
Conditions: 72 h; 1 nM
Catalogue of cell viability readings, one per entry.
Response body: numeric value in %, unit text excluded.

Use the examples below as a reference point.
Compound | cell viability (%)
CO/N=C1\C[C@]2(C[C@@H]3C[C@@H](C/C=C(\C)C[C@@H](C)/C=C/C=C4\CO[C@@H]5[C@H](O)C(C)=C[C@@H](C(=O)O3)[C@]45O)O2)O[C@H](/C(C)=C/C(C)C)[C@H]1C | 103
CC(CN(C)C)CN1c2ccccc2CCc2ccccc21 (stereo not given) | 98.7
CCn1c(=O)[nH]c2ccccc21 | 95.7
Cc1nc(NC(=O)N2CCC[C@H]2C(N)=O)sc1-c1csc(C(C)(C)C)n1 | 103

Then there is this compound:
Challenge: Given the compound C[S+](CC[C@H](N)C(=O)O)C[C@H]1O[C@@H](n2cnc3c(N)ncnc32)[C@H](O)[C@@H]1O (stereo not given in full) , what is its reported cell viability?
Response given: 100

* * *

System: HepG2
Assay: cell viability relative to DMSO; higher = less toxic
Details: 72 h; 1 nM
Catalogue of cell viability readings, one per entry.
State the result as a value with its unit after it.

Use the examples below as a reference point.
Mol | cell viability
N#C/C(=C1/SC[C@@H](c2ccc(Cl)cc2Cl)S1)n1ccnc1 | 104%
Cc1ccc(Oc2ccccc2-c2csc(N=C3NCCCN3)n2)c(C)c1 | 105%
CC(C)(C)Sc1c(CC(C)(C)C(=O)O)n(Cc2ccc(Cl)cc2)c2ccc(OCc3ccc4ccccc4n3)cc12 | 105%
Cc1cnc(-c2cc(N3CCN(C(=O)CCS(C)(=O)=O)CC3)ncc2Cl)c(C)c1 | 99.9%

Challenge: Hi! What's the reported cell viability for COC(=O)Nc1nc2cc(SC(C)C)ccc2[nH]1 on HepG2?
Response given: 95%

* * *

Catalogue of cell viability readings, one per entry.
Test system: Vero E6
Experiment: cell viability relative to DMSO; higher = less toxic
Conditions: 72 h; 100 nM
Where a name gives a salt, the structure may show the parent alone.
Response body: numeric value in %, unit text excluded.

Molecule | cell viability (%)
COc1ccccc1N1CCN(CCn2c(=O)[nH]c3c([nH]c4ccccc43)c2=O)CC1 | 102
CC(=O)c1cc([N+](=O)[O-])c(Sc2ccc(F)cc2F)s1 | 101
C=CCN1CC[C@]23c4c5ccc(O)c4O[C@H]2C(=O)CC[C@@]3(O)[C@H]1C5 [NALOXONE HYDROCHLORIDE] | 104

Challenge: Given the molecule COc1ccc(-c2coc3cc(O)cc(O)c3c2=O)cc1 , what is its reported cell viability?
Response given: 101

Challenge: Can you check O=[N+]([O-])c1nccn1CC(O)CN1CCCCC1 (stereo not given) next?
Response given: 94.7

Challenge: Can you check CCn1c(=O)[nH]c2ccccc21 next?
Response given: 89.7

Challenge: Can you check COc1ccccc1N1CCN(CCN2C(=O)CC3(CCCC3)CC2=O)CC1 next?
Response given: 99.9

Challenge: Can you check Oc1cc(CNC(=S)/C=C/c2cc(O)c(O)c(Br)c2)cc(O)c1O next?
Response given: 92.8

Challenge: Can you check O=C(O)CCNc1cc(N2CCc3ccccc3CC2)nc(-c2ccccn2)n1 next?
Response given: 96.2

Challenge: Can you check O=c1c(O)c(-c2ccc(O)cc2)oc2cc(O)cc(O)c12 next?
Response given: 98.5

* * *

Tested on: A549-ACE2 infected with SARS-CoV-2
Experiment: cell count relative to DMSO; higher = less toxic
Conditions: 1 µM; 24 h
Readout Name: cell count (%)
Response body: numeric value in %, unit text excluded.

Compound | Obs Value
Oc1cc(CNC(=S)/C=C/c2cc(O)c(O)c(Br)c2)cc(O)c1O [NT157] | 106
CC(C)c1ccc(C(=O)c2cccs2)c(SCCCCCCCCN(C)C)n1 | 111
CCN1CCN(c2ccc(Nc3cc(N(C)C(=O)Nc4c(Cl)c(OC)cc(OC)c4Cl)ncn3)cc2)CC1 [NVP-BGJ398] | 98
S=C(S)N1CCCC1 [pyrrolidine-dithiocarbamate] | 103

Then there is this compound:
Challenge: Given the compound Cc1ccccc1N(C)C(=O)c1ccc([S+]([O-])c2nccs2)c([N+](=O)[O-])c1 (stereo not given) , what is its reported cell count?
Response given: 99

* * *

Test system: A549-ACE2
Test: drug-induced phospholipidosis relative to tamoxifen; higher = more phospholipidosis
Conditions: 0.3 µM; 72 h
Counter-ions that a name gives are not always drawn.
Readout Name: drug-induced phospholipidosis (%)
Response body: numeric value in %, unit text excluded.

Use the examples below as a reference point.
Molecule | Target Under Test | Unit Spec | Obs Value
C[C@H](N)Cc1c[nH]cn1 [alpha-methylhistamine-dihydrobromide-(S)-(+)] | A549-ACE2 | % | 2.88
CCN1CCN(c2ccc(Nc3cc(N(C)C(=O)Nc4c(Cl)c(OC)cc(OC)c4Cl)ncn3)cc2)CC1 [NVP-BGJ398] | A549-ACE2 | % | 3.12
Cc1ccc(CNc2ncnc3ccc(-c4ccc(CO)o4)cc23)o1 [ML167] | A549-ACE2 | % | 1.51
CC(=O)c1cc([N+](=O)[O-])c(Sc2ccc(F)cc2F)s1 | A549-ACE2 | % | 0.714
CC(C)c1ccc(C(=O)c2cccs2)c(SCCCCCCCCN(C)C)n1 | A549-ACE2 | % | 0.841

Then there is this molecule:
Challenge: Given the molecule Cc1nc(Nc2cnn(C3CCNCC3)c2)nc2c1N(C)C(=O)c1cc3ccccc3cc1N2C [HTH-01-015] , what is its reported drug-induced phospholipidosis?
Response given: 6.1

* * *

Tested on: Vero E6
Test: cell viability relative to DMSO; higher = less toxic
Details: 72 h; 1 nM
Catalogue of cell viability readings, one per entry.
Response body: numeric value in %, unit text excluded.

Compound | Unit Spec | cell viability
COc1cc(COc2cc(N)c(Cl)cc2C(=O)CCC2CCN(CCNS(C)(=O)=O)CC2)cc(OC)c1 | % | 96.8
CN(N=O)C(=O)N[C@@H](C=O)[C@@H](O)[C@H](O)[C@H](O)CO | % | 98.5
COc1cc(C(=S)N2CCOCC2)ccc1O [vanitiolide] | % | 97.2
COc1cc([S+](C)[O-])ccc1-c1nc2cccnc2[nH]1 (centres undefined) | % | 98
C[C@@H]([C@@H](O)c1ccc(O)cc1)N1CCC(O)(c2ccccc2)CC1 | % | 98.2
Cc1ccc(Oc2ccccc2-c2csc(N=C3NCCCN3)n2)c(C)c1 | % | 106
CCc1cc(-c2[nH]nc(C)c2-c2ccc3c(c2)OCCO3)c(O)cc1O | % | 99.4
CCOc1ccc(C(=O)OCCN(CC)CC)cc1 | % | 94.6

Challenge: Given the compound COc1cc(-c2cc(-c3cccc(O)c3)cnc2N)cc(OC)c1OC , what is its reported cell viability?
Response given: 99.7

Challenge: Can you check COc1cc2c(Nc3ccc(Cl)c(Cl)c3F)ncnc2cc1OC[C@@H]1C[C@@H]2CN(C)C[C@@H]2C1 next?
Response given: 96.8

Challenge: Can you check CC(C)C[C@@H](N)C1(c2ccc(Cl)cc2)CCC1 next?
Response given: 106

* * *

Test system: Calu-3
Test: relative viability EC50 (midpoint between 100% and the lowest measured viability); higher = less toxic
Settings: 72 h
Where a name gives a salt, the structure may show the parent alone.
Catalogue of relative viability EC50 readings, one per entry.

Use the examples below as a reference point.
Compound | relative viability EC50
CN(CCOP(=O)(O)O)C(=N)N [creatinol-phosphate] | > 10 µM
Cn1c(=O)cnn(CCCCN2CCN(c3ncccn3)CC2)c1=O | > 10 µM
CCOC(=O)c1c(/C(C#N)=C\N)c2ccc(Cl)c(Cl)c2n1C | > 10 µM
Clc1ccc(C(Cn2ccnc2)OCc2c(Cl)cccc2Cl)c(Cl)c1 (stereo not given) | > 10 µM
COc1ccc([C@]2(C#N)CC[C@@H](C(=O)O)CC2)cc1OC1CCCC1 | > 10 µM
CC(C)(NS(=O)(=O)c1ccc(Oc2ccc(F)cc2)cc1)C(=O)NO | > 10 µM
O=C1C[C@@H](c2ccc(O)cc2)Oc2cc(O)cc(O)c21 | > 10 µM
C#C[C@]1(OC(C)=O)CC[C@H]2[C@@H]3CCC4=CC(=O)CC[C@@H]4[C@H]3CC[C@@]21C [norethindrone-acetate] | > 10 µM
C[C@H](N)Cc1c[nH]cn1 [alpha-methylhistamine-dihydrobromide-(S)-(+)] | > 10 µM
Cc1ccc(Nc2ncc3c(n2)N(C)C(=O)N(c2cc(NC(=O)c4cccc(C(F)(F)F)c4)ccc2C)C3)cn1 | 0.195 µM

Challenge: Given the compound Cc1cc(C(=O)N2Cc3cnn(C)c3Nc3ccccc32)ccc1CNC(=O)N1CCC[C@H]1C(=S)N1CCCN(C)CC1 , what is its reported relative viability EC50?
Response given: > 10 µM

Challenge: Can you check Cc1nnc(NS(=O)(=O)c2ccc(N)cc2)s1 next?
Response given: > 10 µM

Challenge: Can you check COc1cc2c(=O)c(-c3ccc(O)cc3)coc2cc1O next?
Response given: > 10 µM

Challenge: Can you check CC1(C)C(/C=C/C=C/C=C/C=C2\N(CCCCS(=O)(=O)O)c3ccc4ccccc4c3C2(C)C)=[N+](CCCCS(=O)(=O)[O-])c2ccc3ccccc3c21 next?
Response given: > 10 µM

Challenge: Can you check Cc1c(O)c(=O)n(-c2ccccc2)n1C [4-hydroxy-phenazone] next?
Response given: > 10 µM

Challenge: Can you check OCCOc1ccc(/C(=C(/CCCl)c2ccccc2)c2ccccc2)cc1 next?
Response given: > 10 µM

Challenge: Can you check CCC(=O)O[C@]1(C(=O)CO)CC[C@H]2[C@@H]3CCC4=CC(=O)CC[C@]4(C)[C@H]3CC[C@@]21C next?
Response given: > 10 µM

Challenge: Can you check NS(=O)(=O)c1cc2c(cc1Cl)N=CNS2(=O)=O [chlorothiazide] next?
Response given: > 10 µM

Challenge: Can you check CCCCn1ccc(N2CCC(c3ccccc3)CC2)c(Cl)c1=O next?
Response given: > 10 µM

Challenge: Can you check CCC/C=C1\OC(=O)C2=C1CCC=C2 [ligustilide] next?
Response given: > 10 µM

Challenge: Can you check CC1(C)S[C@@H]2[C@H](NC(=O)[C@H](N)c3ccc(O)cc3)C(=O)N2[C@H]1C(=O)O next?
Response given: > 10 µM
